So I've got a bunch of molecules here, and I need their log10(CC50 at 48 h) values.
# procedure-text: In vitro cytotoxicity assessment in THP-1 cell line (MTT)
# Type: cell-based, human
# applied-conditions: human, THP-1 cells, 48 h, MTT; at least three independent assays; read-out: Cytotoxicity CC50 ± SEM
Short version: log10 scale, CC50 at 48 h, µM.

Would you mind giving log10(CC50 at 48 h) for every molecule in the list below?
1. Nc1cc[nH]n1 [PIR, 3-aminopyrazole, reference compound]
2. Nc1ccnn1C(=O)C1CCC2(CC1)OOC1(O2)C2CC3CC(C2)CC1C3 (stereo not drawn)
3. C[C@@H]1[C@H](O)[C@@H](C)/C=C/C=C/C=C/C=C/C=C/C=C/C=C/[C@H](O[C@@H]2O[C@H](C)[C@@H](O)[C@H](N)[C@@H]2O)C[C@@H]2O[C@](O)(C[C@@H](O)C[C@@H](O)[C@H](O)CC[C@@H](O)C[C@@H](O)CC(=O)O[C@H]1C)C[C@H](O)[C@H]2C(=O)O [AmB, Amphotericin B, reference compound]

**Result**
1: 2.31; 2: 2.82; 3: 1.36

I need log10(CC50 at 48 h) for every entry listed below, if you could help.
1. CCOC(=O)C1CCC2(CC1)OOC1(OO2)C2CC3CC(C2)CC1C3 (stereo not drawn)
2. CCOC(=O)C1CCC2(CC1)OOC1(O2)C2CC3CC(C2)CC1C3 (stereo not drawn)

**Result**
1. 2.57
2. 2.58
